Entries and their measured HCR (Hypoxia Cytotoxicity Ratio) follow.
System: HCT116
Assay notes: Cytotoxicity under normoxia and hypoxia (anaerobic chamber, sulphorhodamine B), HCT116
Type: cell-based, human

# Compound, Endpoint name, Observed
data = [
    ("COc1ccc2c3c(c4cc(OC)c(OC)cc4c2c1)C[C@H]1CCC[N+]1(Cc1c([N+](=O)[O-])ncn1C)C3.[Br-] (stereo partly shown)", "HCR (Hypoxia Cytotoxicity Ratio)", 8.8),
    ("COc1ccc2c3c(c4cc(OC)c(OC)cc4c2c1)C[C@H]1CCCN1C3 [(R)-Antofine, (R)-antofine]", "HCR (Hypoxia Cytotoxicity Ratio)", 0.4),
    ("COc1cc2c3c(c4cc(OC)c(OC)cc4c2cc1OC)C[N+]1(Cc2c([N+](=O)[O-])ncn2C)CCC[C@@H]1C3.[Br-] (stereo partly shown)", "HCR (Hypoxia Cytotoxicity Ratio)", 1.5),
]

Would you kindly look at the next entry?
query: Kindly indicate its recorded HCR (Hypoxia Cytotoxicity Ratio). Item: COc1cc2c3c(c4cc(OC)c(OC)cc4c2cc1OC)C[N+]1(Cc2c([N+](=O)[O-])ncn2C)CCC[C@H]1C3.[Br-] (stereo partly shown)
result: 11.3

###

Test system: CHO-K1
Assay notes: Cytotoxicity (MTT) under normoxia, CHO-K1
Assay type: cell-based, Chinese hamster
Conditions: Cricetulus griseus, CHO-K1, read-out: IC50 CHO-K1
Endpoint name: pIC50
Recall that pIC50 is obtained by taking minus log10 of the concentration measured in molar.

# Molecule, Observed
rows = [
    ("COc1cc2c3c(c4cc(OC)c(OC)cc4c2cc1OC)CN1CCC[C@H]1C3 [(S)-Tylophorine]", 7.46),
    ("COc1cc2c3c(c4cc(OC)c(OC)cc4c2cc1OC)C[N+]1(Cc2c([N+](=O)[O-])ncn2C)CCC[C@H]1C3.[Br-] (stereo partly drawn)", 5.46),
]

query: Indicate its recorded pIC50; the molecule in question is COc1ccc2c3c(c4cc(OC)c(OC)cc4c2c1)C[C@H]1CCC[N+]1(Cc1c([N+](=O)[O-])ncn1C)C3.[Br-] (stereo partly drawn)
result: 5.77

###

Tested on: HCT116
Assay notes: Cytotoxicity under normoxia and hypoxia (anaerobic chamber, sulphorhodamine B), HCT116
Format: cell-based, human
Conditions: HCT116; HCR = normoxic IC50/hypoxic IC50
Endpoint name: HCR (Hypoxia Cytotoxicity Ratio)
Reply: number alone, nothing else.

Please review the following examples before continuing.
# Compound, Observed
rows = [
    ("CS(=O)(=O)OCCN(CCBr)c1c(C(=O)NCCO)cc([N+](=O)[O-])cc1[N+](=O)[O-] [PR-104A]", 10.5),
    ("COc1cc2c3c(c4cc(OC)c(OC)cc4c2cc1OC)CN1CCC[C@@H]1C3 [(R)-Tylophorine]", 0.6),
    ("COc1cc2c3c(c4cc(OC)c(OC)cc4c2cc1OC)CN1CCC[C@H]1C3 [(S)-Tylophorine]", 0.5),
]

query: // fetch HCR (Hypoxia Cytotoxicity Ratio); item: Cn1c(COP(=O)(NCCBr)NCCBr)cnc1[N+](=O)[O-] [Evofosfamide] ; system: HCT116
result: 85

###

Parameter log10(IC50): see the listing below.
System: RKO
Assay notes: Cytotoxicity (MTT) under normoxia, RKO
Type: cell-based
Conditions: Homo sapiens, read-out: IC50 RKO
Please note: log10 values; quantity IC50; unit µM.

As a guide, the following entries are already answered.
# Compound, Tested on, Observed
measured = [
    ("COc1ccc2c3c(c4cc(OC)c(OC)cc4c2c1)C[C@H]1CCC[N+]1(Cc1c([N+](=O)[O-])ncn1C)C3.[Br-] (some centres unmarked)", "RKO", 0.31),
    ("COc1cc2c3c(c4cc(OC)c(OC)cc4c2cc1OC)C[N+]1(Cc2c([N+](=O)[O-])ncn2C)CCC[C@@H]1C3.[Br-] (some centres unmarked)", "RKO", 0.95),
    ("COc1cc2c3c(c4cc(OC)c(OC)cc4c2cc1OC)CN1CCC[C@@H]1C3 [(R)-Tylophorine]", "RKO", -0.47),
    ("COc1cc2c3c(c4cc(OC)c(OC)cc4c2cc1OC)C[N+]1(Cc2c([N+](=O)[O-])ncn2C)CCC[C@H]1C3.[Br-] (some centres unmarked)", "RKO", 0.61),
]

query: Check the records and state log10(IC50) for COc1cc2c3c(c4cc(OC)c(OC)cc4c2cc1OC)CN1CCC[C@H]1C3 [(S)-Tylophorine]
result: -0.69
